- Measurement description: in vivo
- Condition notes: male, NodCB17 SCID, mouse, pancreas, iv, 0.061 nmol, total radioactivity
Measured parameter: tissue uptake at 0.25 h (%ID/g)
# value in %ID/g; strip the unit string

Task item: Please report the measured tissue uptake at 0.25 h for CC(C)C[C@H](NC(=O)C[C@H](O)[C@H](CC(C)C)NC(=O)[C@H](Cc1c[nH]cn1)NC(=O)CNC(=O)[C@@H](NC(=O)[C@H](C)NC(=O)[C@H](Cc1c[nH]c2ccccc12)NC(=O)[C@H](CCC(N)=O)NC(=O)[C@@H](Cc1ccccc1)NC(=O)CCOCCOCCOCCOCCNC(=O)OC1CCCC2=CNN=C(c3ccc(CNC(=O)CN4CCN(CC(=O)O)CCN(CC(=O)O)CCN(CC(=O)O)CC4)cc3)C2CC1)C(C)C)C(N)=O (stereo partly shown) [[90Y]Y-DOTA-Tz-TCO-PEG4-AR, metal not drawn]
Reply: 32

----------
- Measurement description: in vivo
- Condition notes: male, NodCB17 SCID, mouse, prostate, iv, 0.061 nmol, total radioactivity
Measured parameter: tissue uptake at 0.25 h (%ID/g)
Entry rule: numbers only, all in %ID/g.

Task item: Given the compound CC(C)C[C@H](NC(=O)C[C@H](O)[C@H](CC(C)C)NC(=O)[C@H](Cc1c[nH]cn1)NC(=O)CNC(=O)[C@@H](NC(=O)[C@H](C)NC(=O)[C@H](Cc1c[nH]c2ccccc12)NC(=O)[C@H](CCC(N)=O)NC(=O)[C@@H](Cc1ccccc1)NC(=O)CCOCCOCCOCCOCCNC(=O)OC1CCCC2=CNN=C(c3ccc(CNC(=O)CN4CCN(CC(=O)O)CCN(CC(=O)O)CCN(CC(=O)O)CC4)cc3)C2CC1)C(C)C)C(N)=O (stereo partly shown) [[90Y]Y-DOTA-Tz-TCO-PEG4-AR, metal not drawn] , write its reported tissue uptake at 0.25 h.
Reply: 26.3

----------
- Measurement description: in vivo
- Condition notes: male, NodCB17 SCID, mouse, small intestine, iv, 0.061 nmol, total radioactivity
Measured parameter: tissue uptake at 0.25 h (%ID/g)
The answer is to be given in %ID/g; state only the numeric part.

Task item: Indicate its recorded tissue uptake at 0.25 h; the molecule in question is CC(C)C[C@H](NC(=O)C[C@H](O)[C@H](CC(C)C)NC(=O)[C@H](Cc1c[nH]cn1)NC(=O)CNC(=O)[C@@H](NC(=O)[C@H](C)NC(=O)[C@H](Cc1c[nH]c2ccccc12)NC(=O)[C@H](CCC(N)=O)NC(=O)[C@@H](Cc1ccccc1)NC(=O)CCOCCOCCOCCOCCNC(=O)OC1CCCC2=CNN=C(c3ccc(CNC(=O)CN4CCN(CC(=O)O)CCN(CC(=O)O)CCN(CC(=O)O)CC4)cc3)C2CC1)C(C)C)C(N)=O (stereo partly shown) [[90Y]Y-DOTA-Tz-TCO-PEG4-AR, metal not drawn]
Reply: 2.74

----------
- Measurement description: Biodistribution of [111In]In-radiocomplexes in healthy mice
- Format: in vivo
- Condition notes: 1 h p.i.
Measured parameter: Biodistribution: Blood (% I.D./g)
Report as a plain number; the unit % I.D./g is understood.

Completed entries (count: 3):
molecule="O=C([O-])CN1CCN(CC(=O)[O-])CCN(CC(=O)NCc2ccc(-c3nncnn3)cc2)CCN(CC(=O)[O-])CC1.[111In+3] [[111In]In-DOTA-Tz]" measured_parameter="Biodistribution: Blood" readout_value=0.32
molecule="O=C([O-])CN1CCN(CC(=O)[O-])CCN(CC(=O)NCCOCCOCCOCCOCCOCCOCCOCCOCCOCCOCCOCCNC(=O)CCCC(=O)NCc2ccc(-c3nncnn3)cc2)CCN(CC(=O)[O-])CC1.[111In+3] [[111In]In-DOTA-PEG-Tz]" measured_parameter="Biodistribution: Blood" readout_value=0.44
molecule="O=C([O-])CN1CCN(CC(=O)[O-])CCN(C(CCC(=O)NCc2ccc(-c3nncnn3)cc2)C(=O)[O-])CCN(CC(=O)[O-])CC1.[111In+3] (stereo not shown) [[111In]In-DOTAGA-Tz]" measured_parameter="Biodistribution: Blood" readout_value=1.1

Task item: Find the measured Biodistribution: Blood of O=C([O-])CN1CCN(CC(=O)[O-])CCN(C(CCC(=O)NCCOCCOCCOCCOCCOCCOCCOCCOCCOCCOCCOCCNC(=O)CCCC(=O)NCc2ccc(-c3nncnn3)cc2)C(=O)[O-])CCN(CC(=O)[O-])CC1.[111In+3] (stereo not shown) [[111In]In-DOTAGA-PEG-Tz] and report it.
Reply: 0.7
